Origin of measurements: PubChem BioAssay (NCI)

growth inhibition for assorted molecules
assay: NCI Yeast Anticancer Drug Screen. Data for the rad50 strain (AID 155);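 further: 0% = growth of vehicle-only cultures of the same strain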; conditions: S. cerevisiae rad50 strain growth inhibition; at 50.0 µM; active compounds read high
Compounds without any hit were thinned out: in the full panel of roughly 79,000, 15% have a hit.
PROPERTY: growth inhibition (%)

molecule=O=C(NC(=O)c1cn(CCN(CCO)C(=O)NCCCCCCNC(=O)N(CCO)CCn2cc(C(=O)NC(=O)OCc3ccccc3)c(=O)[nH]c2=O)c(=O)[nH]c1=O)OCc1ccccc1 endpoint_unit=% value=-2.5
molecule="CC(N)C(C)(C)O (stereo unspecified)" endpoint_unit=% value=-2.1
molecule=Cc1cccc(NC(=O)CSc2nnc(Cc3ccccc3)o2)c1 endpoint_unit=% value=-28.1
molecule="CC(=O)OCC1OC(n2ccc(=O)[nH]c2=O)CC1N=[N+]=[N-] (stereo unspecified)" endpoint_unit=% value=-25.1
molecule=O=CN(c1ccccc1)c1ccccc1 endpoint_unit=% value=3.8
molecule=C/C(C(=O)O)=C(\C)c1ccccc1 endpoint_unit=% value=-0.7
molecule=Fc1ccc2cc3cccc[n+]3cc2c1 endpoint_unit=% value=27.1
molecule=CCOc1ccccc1NC(=O)C(=O)CC(=O)c1sc(Nc2nnc(-c3ccc(Cl)c(Cl)c3)o2)nc1C endpoint_unit=% value=20.5
molecule=Nc1nc(N)nc(SCC(=O)O)n1 endpoint_unit=% value=8.55
molecule=CNc1ccc(Cl)cc1S(=O)(=O)c1ccccc1[N+](=O)[O-] endpoint_unit=% value=3.2
molecule=O=C(O)/C(=C\c1ccncc1)c1cccc2ccccc12 endpoint_unit=% value=0.85
molecule="N#CC(NCCCNC(C#N)c1ccccc1)c1ccccc1 (stereo unspecified)" endpoint_unit=% value=-1
molecule=N=c1nc2n(cc1F)[C@@H]1O[C@H](CO)[C@@H](O)[C@@H]1O2 endpoint_unit=% value=13.4
molecule=COc1ccc(OC)c2c(Nc3ccc(S(=O)(=O)O)c4cc(S(=O)(=O)O)cc(S(=O)(=O)O)c34)cc(C)nc12 endpoint_unit=% value=2.5
molecule=C[N+]1(C)CCC(C(=O)c2ccccc2)CC1 endpoint_unit=% value=1.15
molecule=COc1ccc(C(=O)N/N=C/c2c(C)n(C)n(-c3ccccc3)c2=O)cc1 endpoint_unit=% value=-54.1
